B1: HEEH_KT_rd6_0790 (parent)
chain: SEEEEEEWRRAKERGEEIIILGILWKPNDEEAERRIKEALRRV

Variants of: B1
Assay: folding stability dG (cDNA display proteolysis); higher = more stable
Details: PBS, room temperature
measurement_name: folding stability dG (kcal/mol)
Answers are plain numbers, in kcal/mol.

mutations | folding stability dG [kcal/mol]
L24W | 1.26

Give folding stability dG for each listed item.
1. R9Y
2. P27T

1. 1.95
2. 1.16

For every listed record, write down its folding stability dG.
1. E31Q
2. K37H

[1.72, 2]
